Reported logP values follow for various compounds
# METHOD: Partition coefficient (logP)
# Type: physicochemical
# COND: octanol/water
API doc: respond with a numeric literal and nothing else, no unit.

CO[C@@]12C(COC(N)=O)C3=C(C(=O)C(C)=C(OCCOCCCl)C3=O)N1CC1NC12 (stereo not given in full) ... 1.18
CO[C@@]12C(COC(N)=O)C3=C(C(=O)C(C)=C(OCCN4CCCC4)C3=O)N1CC1NC12 (stereo not given in full) ... 1.46
CO[C@@]12C(COC(N)=O)C3=C(C(=O)C(C)=C(OCCC4OCCCO4)C3=O)N1CC1NC12 (stereo not given in full) ... 0.82

// logP lookup, key: CO[C@@]12C(COC(N)=O)C3=C(C(=O)C(C)=C(OCCN4CCSCC4)C3=O)N1CC1NC12 (stereo not given in full)
2.07

// logP lookup, key: CO[C@@]12C(COC(N)=O)C3=C(C(=O)C(C)=C(OCCSc4ccccc4)C3=O)N1CC1NC12 (stereo not given in full)
3.12

---

# Test system: P388
# METHOD: Minimum effective dose was determined on P388 leukemia cells in mice
# Type: functional, Mus musculus
Reported MED values follow for various compounds
Respond with the bare value in M/kg.

CO[C@@]12C(COC(N)=O)C3=C(C(=O)C(C)=C(OCc4ccccn4)C3=O)N1CC1NC12 (some centres undefined) ... 9.2e-07
CO[C@@]12C(COC(N)=O)C3=C(C(=O)C(C)=C(OC4COCOC4)C3=O)N1CC1NC12 (some centres undefined) ... 1.18e-07
CO[C@@]12C(COC(N)=O)C3=C(C(=O)C(C)=C(OC/C=C/CO)C3=O)N1CC1NC12 (some centres undefined) ... 4.83e-07
CO[C@@]12C(COC(N)=O)C3=C(C(=O)C(C)=C(OCCSC)C3=O)N1CC1NC12 (some centres undefined) ... 9.57e-07
CO[C@@]12C(COC(N)=O)C3=C(C(=O)C(C)=C(OCc4cccs4)C3=O)N1CC1NC12 (some centres undefined) ... 7.13e-06
COCC(C)OC1=C(C)C(=O)C2=C(C1=O)C(COC(N)=O)[C@@]1(OC)C3NC3CN21 (some centres undefined) ... 4.81e-07
CO[C@@]12C(COC(N)=O)C3=C(C(=O)C(C)=C(OCC4CC4)C3=O)N1CC1NC12 (some centres undefined) ... 1.028e-06
CO[C@@]12C(COC(N)=O)C3=C(C(=O)C(C)=C(OCCNC(C)=O)C3=O)N1CC1NC12 (some centres undefined) ... 9.32e-07

Param readout= MED; system= P388; entry= CCOC(=O)CCCOC1=C(C)C(=O)C2=C(C1=O)C(COC(N)=O)[C@@]1(OC)C3NC3CN21 (some centres undefined) ; returns value.
1.41e-05

---

# Species: Mus musculus
# METHOD: log(1/C) was estimated in mice
# Format: organism-based
# COND: in vivo
Classify: condition met when Log 1/C is strictly less than 7; condition not met when Log 1/C is not.

# example entries with known answers
CO[C@@]12C(COC(N)=O)C3=C(C(=O)C(C)=C(OC/C=C/CO)C3=O)N1CC1NC12 (stereo partly specified) ... condition met
CCOCCOC1=C(C)C(=O)C2=C(C1=O)C(COC(N)=O)[C@@]1(OC)C3NC3CN21 (stereo partly specified) ... condition not met

Alright, here's another compound for you.
Item CO[C@@]12C(COC(N)=O)C3=C(C(=O)C(C)=C(OCC4COCO4)C3=O)N1CC1NC12 (stereo partly specified) : Log 1/C beneath 7, strictly?
condition met

---

Reported Log 1/C values follow for various molecules
# Species: Mus musculus
# METHOD: log(1/C) was estimated in mice
# Type: organism-based
# COND: in vivo
API doc: respond with a numeric literal and nothing else, no unit.

Solved entries (count: 2):
CCN1CCCC1CCOC1=C(C)C(=O)C2=C(C1=O)C(COC(N)=O)[C@@]1(OC)C3NC3CN21 (stereo partly drawn) ... 6.96
CO[C@@]12C(COC(N)=O)C3=C(C(=O)C(C)=C(OCCCSCCCO)C3=O)N1CC1NC12 (stereo partly drawn) ... 6.98

Please examine the following record next.
// Log 1/C lookup, key: CO[C@@]12C(COC(N)=O)C3=C(C(=O)C(C)=C(OC4COCOC4)C3=O)N1CC1NC12 (stereo partly drawn)
6.93
